Where do the numbers come from? From patent US20260035376A1.

biological target: Avi-KRAS WT (1-169) GppNHp/RAF1 RBD-3×FLAG (52-151) (Homo sapiens, UniProt P01116); construct: 50 nM Avi-KRAS WT (1-169) GppNHp/RAF1 RBD-3×FLAG (52-151); test: Disrupting RAS-effector binding HTRF assay, Raf1 RBD-KRAS WT-GppNHp; details: PPI HTRF, 50 nM Avi-KRAS WT GppNHp, compound titration 30-0.0045 μM; read-out: Raf1 RBD-KRAS WT-GppNHp disruption
Sequence (P01116 1-169 isoform P01116-2 limits assumed): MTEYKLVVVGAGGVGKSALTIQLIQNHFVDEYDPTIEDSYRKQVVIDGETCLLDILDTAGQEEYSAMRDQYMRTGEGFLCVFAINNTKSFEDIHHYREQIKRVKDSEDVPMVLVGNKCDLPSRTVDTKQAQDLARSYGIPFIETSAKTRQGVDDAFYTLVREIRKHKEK
pIC50: −log10 of the molar value.
assayMetric: pIC50

Measured pIC50, N#Cc1c(N)sc2c(F)ccc(-c3c(C(F)(F)F)cc4c(N5CC6CCC(C5)N6)nc(OCC5CC6CCC(C5)O6)nc4c3F)c12 (stereo not drawn) : 5.00 to 6.00

Measured pIC50, `N#Cc1c(N)sc2c(F)ccc(-c3c(C(F)(F)F)cc4c(N5CC6CCC(C5)N6)nc(OCC5CCCCC5)nc4c3F)c12` : < 5.00

Measured pIC50, `CC(=O)N(C)c1nc(N2C[C@H]3CC[C@@H](C2)N3)c2cc(C(F)(F)F)c(-c3ccc(F)c4sc(N)c(C#N)c34)c(F)c2n1` : 5.00 to 6.00

###

I'd appreciate it if you could supply IC50 values for the items below.
biological target: Avi-KRAS WT (1-169) GppNHp/RAF1 RBD-3×FLAG (52-151) (Homo sapiens); construct: 50 nM Avi-KRAS WT (1-169) GppNHp/RAF1 RBD-3×FLAG (52-151); assay: Disrupting RAS-effector binding HTRF assay, Raf1 RBD-KRAS WT-GppNHp; conditions: PPI HTRF, 50 nM Avi-KRAS WT GppNHp, compound titration 30-0.0045 μM; read-out: Raf1 RBD-KRAS WT-GppNHp disruption

Measured IC50, `N#Cc1c(N)sc2c(F)ccc(-c3c(C(F)(F)F)cc4c(N5CC6CCC(C5)N6)nc(OCC5(CO)CC5)nc4c3F)c12` : 1 to 10 µM

Measured IC50, `N#Cc1c(N)sc2c(F)ccc(-c3c(C(F)(F)F)cc4c(N5CC6CCC(C5)N6)nc(OCCc5cn[nH]c5)nc4c3F)c12` : 1 to 10 µM

Measured IC50, `N#Cc1c(N)sc2c(F)ccc(-c3c(C(F)(F)F)cc4c(N5CC6CCC(C5)N6)nc(OC[C@@H]5COCCO5)nc4c3F)c12` : 1 to 10 µM

###

I'd appreciate it if you could supply pIC50 values for the items below.
target: Avi-KRAS G12V (1-169) GppNHp/RAF1 RBD-3×FLAG (52-151) (Homo sapiens, UniProt P01116, G12V); construct: 50 nM Avi-KRAS G12V (1-169) GppNHp/RAF1 RBD-3×FLAG (52-151); test: Disrupting RAS-effector binding HTRF assay, Raf1 RBD-KRAS G12V-GppNHp; settings: PPI HTRF, 50 nM Avi-KRAS G12V GppNHp, compound titration 30-0.0045 μM; read-out: Raf1 RBD-KRAS G12V-GppNHp disruption
Sequence (P01116 1-169 isoform P01116-2 G12V limits assumed): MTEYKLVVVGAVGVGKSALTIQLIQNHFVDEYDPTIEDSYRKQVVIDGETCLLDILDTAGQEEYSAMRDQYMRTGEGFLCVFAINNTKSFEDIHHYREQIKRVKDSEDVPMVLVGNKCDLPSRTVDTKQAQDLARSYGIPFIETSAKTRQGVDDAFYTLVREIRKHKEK
pIC50: −log10 of the molar value.

Measured pIC50, CN1CCC(COc2nc(N3CC4CCC(C3)N4)c3cc(C(F)(F)F)c(-c4ccc(F)c5sc(N)c(C#N)c45)c(F)c3n2)C1=O (centres unmarked) [Compound 55] : 5.00 to 6.00

Measured pIC50, CN(c1nc(OCC2CCOCC2)nc2c(F)c(-c3ccc(F)c4sc(N)c(C#N)c34)c(C(F)(F)F)cc12)C1CCNCC1 [Compound 61] : < 5.00

Measured pIC50, N#Cc1c(N)sc2c(F)ccc(-c3c(C(F)(F)F)cc4c(N5CC6CCC(C5)N6)nc(OC[C@@H]5COCCO5)nc4c3F)c12 [Compound 38] : < 5.00

Measured pIC50, Cc1nc(N2C[C@H]3CC[C@@H](C2)N3)c2cc(C(F)(F)F)c(-c3ccc(F)c4sc(N)c(C#N)c34)c(F)c2n1 [Compound 22] : < 5.00

Measured pIC50, N#Cc1c(N)sc2c(F)ccc(-c3c(C(F)(F)F)cc4c(N5CC6CCC(C5)N6)nc(N5CC[C@H](O)C5)nc4c3F)c12 [Compound 4] : < 5.00

Measured pIC50, N#Cc1c(N)sc2c(F)ccc(-c3c(C(F)(F)F)cc4c(N5CC6CCC(C5)N6)nc(OC5CC(O)C5)nc4c3F)c12 (centres unmarked) [Compound 12] : < 5.00

Measured pIC50, N#Cc1c(N)sc2c(F)ccc(-c3c(C(F)(F)F)cc4c(N5CC6CCC(C5)N6)nc(OCC(CO)CO)nc4c3F)c12 [Compound 30] : 5.00 to 6.00

Measured pIC50, N#Cc1c(N)sc2c(F)ccc(-c3c(C(F)(F)F)cc4c(N5CC6CCC(C5)N6)nc(OCC5CCOC5)nc4c3F)c12 (centres unmarked) [Compound 47] : < 5.00

Measured pIC50, N#Cc1c(N)sc2c(F)ccc(-c3c(C(F)(F)F)cc4c(N5CC6CCC(C5)N6)nc(OC[C@H](O)CO)nc4c3F)c12 [Compound 29] : 5.00 to 6.00

Measured pIC50, N#Cc1c(N)sc2c(F)ccc(-c3c(C(F)(F)F)cc4c(N5CC6CCC(C5)N6)nc(N5CC(O)C5)nc4c3F)c12 [Compound 16] : < 5.00

Measured pIC50, N#Cc1c(N)sc2c(F)ccc(-c3c(C(F)(F)F)cc4c(N5CC6CCC(C5)N6)nc(OCC5CCCO5)nc4c3F)c12 (centres unmarked) [Compound 45] : 5.00 to 6.00

Measured pIC50, N#Cc1c(N)sc2c(F)ccc(-c3c(C(F)(F)F)cc4c(N5CC6CCC(C5)N6)nc(OCCC5CCOCC5)nc4c3F)c12 [Compound 46] : < 5.00

Measured pIC50, N#Cc1c(N)sc2c(F)ccc(-c3c(C(F)(F)F)cc4c(N5CC6CCC(C5)N6)nc(OCCc5ccccc5)nc4c3F)c12 [Compound 13] : < 5.00

Measured pIC50, C[C@@H]1CN(c2ncnc3c(F)c(-c4ccc(F)c5sc(N)c(C#N)c45)c(C(F)(F)F)cc23)[C@@H](C)CN1 [Compound 64] : < 5.00

Measured pIC50, N#Cc1c(N)sc2c(F)ccc(-c3c(C(F)(F)F)cc4c(N5CC6CCC(C5)N6)nc(OCC5CC6CCC(C5)O6)nc4c3F)c12 (centres unmarked) [Compound 52] : < 5.00

Measured pIC50, N#Cc1c(N)sc2c(F)ccc(-c3c(C(F)(F)F)cc4c(N5CC6CCC(C5)N6)nc(OC[C@@H](O)CO)nc4c3F)c12 [Compound 34] : 5.00 to 6.00

Measured pIC50, COc1nc(N(C)[C@@H]2CCNC2)c2cc(C(F)(F)F)c(-c3ccc(F)c4sc(N)c(C#N)c34)c(F)c2n1 [Compound 59] : < 5.00

Measured pIC50, CN1C[C@H](COc2nc(N3CC4CCC(C3)N4)c3cc(C(F)(F)F)c(-c4ccc(F)c5sc(N)c(C#N)c45)c(F)c3n2)CC1=O [Compound 33] : < 5.00

Measured pIC50, N#Cc1c(N)sc2c(F)ccc(-c3c(C(F)(F)F)cc4c(N5CC6CCC(C5)N6)nc(OCCc5cnoc5)nc4c3F)c12 [Compound 65] : < 5.00

Measured pIC50, COCCOc1nc(N2CC3CCC(C2)N3)c2cc(C(F)(F)F)c(-c3ccc(F)c4sc(N)c(C#N)c34)c(F)c2n1 [Compound 15] : < 5.00

Measured pIC50, N#Cc1c(N)sc2c(F)ccc(-c3c(C(F)(F)F)cc4c(N5CC6CCC(C5)N6)nc(OCCCO)nc4c3F)c12 [Compound 31] : < 5.00

Measured pIC50, COc1nc(N2C[C@@H](C)NC[C@@H]2C)c2cc(C(F)(F)F)c(-c3ccc(F)c4sc(N)c(C#N)c34)c(F)c2n1 [Compound 60] : < 5.00

Measured pIC50, CN1C(=O)CC[C@@H]1COc1nc(N2CC3CCC(C2)N3)c2cc(C(F)(F)F)c(-c3ccc(F)c4sc(N)c(C#N)c34)c(F)c2n1 [Compound 57] : < 5.00

###

target: Avi-KRAS WT (1-169) GppNHp/RAF1 RBD-3×FLAG (52-151) (Homo sapiens, UniProt P01116); construct: 50 nM Avi-KRAS WT (1-169) GppNHp/RAF1 RBD-3×FLAG (52-151); assay: Disrupting RAS-effector binding HTRF assay, Raf1 RBD-KRAS WT-GppNHp; conditions: PPI HTRF, 50 nM Avi-KRAS WT GppNHp, compound titration 30-0.0045 μM; read-out: Raf1 RBD-KRAS WT-GppNHp disruption
assayMetric: IC50

Measured IC50, N#Cc1c(N)sc2c(F)ccc(-c3c(C(F)(F)F)cc4c(N5CC6CCC(C5)N6)nc(OC[C@H](O)CO)nc4c3F)c12 [Compound 29] : 1 to 10 µM

Measured IC50, CC(=O)Nc1nc(N2CC3CCC(C2)N3)c2cc(C(F)(F)F)c(-c3ccc(F)c4sc(N)c(C#N)c34)c(F)c2n1 [Compound 28] : > 10 µM

Measured IC50, COc1nc(N2C[C@@H](C)NC[C@@H]2C)c2cc(C(F)(F)F)c(-c3ccc(F)c4sc(N)c(C#N)c34)c(F)c2n1 [Compound 60] : > 10 µM

Measured IC50, CN1C(=O)CC[C@H]1COc1nc(N2CC3CCC(C2)N3)c2cc(C(F)(F)F)c(-c3ccc(F)c4sc(N)c(C#N)c34)c(F)c2n1 [Compound 54] : 1 to 10 µM

Measured IC50, N#Cc1c(N)sc2c(F)ccc(-c3c(C(F)(F)F)cc4c(N5CC6CCC(C5)N6)nc(N5CCNC(=O)CC5)nc4c3F)c12 [Compound 25] : 1 to 10 µM

Measured IC50, N#Cc1c(N)sc2c(F)ccc(-c3c(C(F)(F)F)cc4c(N5CC6CCC(C5)N6)nc(OCC5CCCOC5)nc4c3F)c12 (stereo not drawn) [Compound 48] : 1 to 10 µM
